Assay: in vivo
Details: female, BALB/c, mouse, iv, 20 pmol peptide, total radioactivity, uptake in liver
Readout Type: tissue uptake at 5 min (%ID/g)
A number alone suffices; assume %ID/g.

Quick one: give measured tissue uptake at 5 min for CCCC[C@@H](C(=O)N[C@@H](CC(=O)O)C(=O)N[C@@H](Cc1cccc2ccccc12)C(N)=O)N(C)C(=O)[C@H](Cc1c[nH]c2ccccc12)NC(=O)CNC(=O)[C@H](Cc1ccc(O)cc1)NC(=O)[C@H](C)NC(=O)[C@@H](CCC(=O)O)NC(=O)CN1CCN(CC(=O)O)CCN(CC(=O)O)CCN(CC(=O)O)CC1 [^68Ga-DOTA-MGS5, metal not drawn] 5.02
